Test system: mock-infected MT-4 cells
assay_procedure: Cytotoxicity: viability of mock-infected cells by the MTT method
Type: cell-based, human
Collected CC50 values appear next to each entry.

{"molecule": "CCC(c1cc(=O)[nH]c(SC2CCCC2)n1)c1cccc2ccccc12 (stereo not drawn) [MC 973]", "lt_gt_eq": "=", "CC50 / µM": 51}
{"molecule": "CSc1nc(Cc2c(Cl)cccc2Cl)cc(=O)[nH]1 [MC 877]", "lt_gt_eq": ">", "CC50 / µM": 200}
{"molecule": "CCCNc1nc(Cc2c(F)cccc2F)c(C)c(=O)[nH]1 [MC 1186]", "lt_gt_eq": ">", "CC50 / µM": 200}
{"molecule": "CSc1nc(Cc2c(F)cccc2F)c(C)c(=O)[nH]1 [MC 869]", "lt_gt_eq": "=", "CC50 / µM": 200}
{"molecule": "CNc1nc(Cc2c(F)cccc2F)cc(=O)[nH]1 [MC 1167]", "lt_gt_eq": ">", "CC50 / µM": 200}
{"molecule": "CC(C)CSc1nc(Cc2c(F)cccc2F)cc(=O)[nH]1 [MC 866]", "lt_gt_eq": "=", "CC50 / µM": 182}
{"molecule": "CCC(C)Sc1nc(Cc2ccc([N+](=O)[O-])cc2)cc(=O)[nH]1 (stereo not drawn) [MC 863]", "lt_gt_eq": "=", "CC50 / µM": 151}
{"molecule": "CCC(C)Sc1nc(Cc2cccc(Cl)c2)c(C)c(=O)[nH]1 (stereo not drawn) [MC 910]", "lt_gt_eq": ">", "CC50 / µM": 200}
{"molecule": "CCC(C)Sc1nc(Cc2cccc([N+](=O)[O-])c2)cc(=O)[nH]1 (stereo not drawn) [MC 897]", "lt_gt_eq": "=", "CC50 / µM": 157}
{"molecule": "CC(C)Sc1nc(C(C)c2c(Cl)cccc2Cl)cc(=O)[nH]1 (stereo not drawn) [MC 1001]", "lt_gt_eq": "=", "CC50 / µM": 117}
{"molecule": "CCC(C)Sc1nc(Cc2ccccc2F)cc(=O)[nH]1 (stereo not drawn) [MC 880]", "lt_gt_eq": "=", "CC50 / µM": 200}
{"molecule": "CCC(C)Sc1nc(Cc2cc(F)cc(F)c2)cc(=O)[nH]1 (stereo not drawn) [MC 1041]", "lt_gt_eq": ">", "CC50 / µM": 200}
{"molecule": "CC(c1cc(=O)[nH]c(SC2CCCC2)n1)c1c(F)cccc1F (stereo not drawn) [MC 1008]", "lt_gt_eq": ">", "CC50 / µM": 200}
{"molecule": "CCC(C)Sc1nc(Cc2c(Cl)cccc2Cl)cc(=O)[nH]1 (stereo not drawn) [MC 815]", "lt_gt_eq": ">", "CC50 / µM": 200}
{"molecule": "CCc1c(Cc2ccccc2)nc(SC(C)CC)[nH]c1=O (stereo not drawn) [MC 798]", "lt_gt_eq": ">", "CC50 / µM": 200}
{"molecule": "CCCc1c(Cc2ccccc2)nc(SC(C)CC)[nH]c1=O (stereo not drawn) [MC 856]", "lt_gt_eq": "=", "CC50 / µM": 190}
{"molecule": "CCC(c1cc(=O)[nH]c(SC2CCCC2)n1)c1c(F)cccc1F (stereo not drawn) [MC 1006]", "lt_gt_eq": "=", "CC50 / µM": 200}
{"molecule": "CC(C)CSc1nc(Cc2c(Cl)cccc2Cl)cc(=O)[nH]1 [MC 885]", "lt_gt_eq": ">", "CC50 / µM": 200}
{"molecule": "Cc1c(C(C)c2c(F)cccc2F)nc(SC2CCCC2)[nH]c1=O (stereo not drawn) [MC-1047]", "lt_gt_eq": ">", "CC50 / µM": 200}
{"molecule": "CC(C)Sc1nc(Cc2c(F)cccc2F)c(C(C)C)c(=O)[nH]1 [MC 1039]", "lt_gt_eq": ">", "CC50 / µM": 200}
{"molecule": "CCCNc1nc(Cc2c(F)cccc2F)cc(=O)[nH]1 [MC 1078]", "lt_gt_eq": "=", "CC50 / µM": 200}
